tested on: influenza A virus minigenome (PB2, PB1, PA, NP; luciferase reporter) in 293T cells, RNP_Hubei; test: microbe, parasite or virus in culture; type: cell-based; settings: HEK-293T, 48 h
pEC50: −log10 of the molar value.
measured.metric: pEC50

Worked examples, 4 molecules total:
- smiles.string: "CC(C)C(=O)Oc1c2n(ncc1=O)[C@@H]([C@H](c1ccccc1)c1cccc(F)c1F)[C@H]1CCCN1C2=O"
  pEC50: "> 7.00"
- smiles.string: "CC(=O)Oc1c2n(ncc1=O)[C@@H]([C@H](c1cccc(F)c1)c1cccc(F)c1F)[C@H]1CCCN1C2=O"
  pEC50: "> 7.00"
- smiles.string: "Cc1c(F)cccc1[C@@H](c1cccc(F)c1)[C@H]1[C@H]2CCCN2C(=O)c2c(O)c(=O)cnn21"
  pEC50: "> 7.00"
- smiles.string: "CC(C)CC(=O)OCOc1c2n(ncc1=O)[C@@H]([C@H](c1ccccc1)c1cccc(F)c1F)[C@H]1CCCN1C2=O"
  pEC50: "> 7.00"

Measured pEC50 of `O=C1c2c(O)c(=O)cnn2[C@@H]([C@@H](c2ccccc2F)c2cccc(F)c2F)[C@H]2CCCN12` : > 7.00

Input `Cc1oc(=O)oc1COc1c2n(ncc1=O)[C@@H]([C@H](c1ccc(F)cc1)c1cccc(F)c1F)[C@H]1CCCN1C2=O` . Output pEC50: > 7.00

Sure, the documented pEC50 for `CC(C)(C)C(=O)OCOc1c2n(ncc1=O)[C@@H]([C@H](c1ccccc1)c1cccc(F)c1F)[C@H]1CCCN1C2=O` is > 7.00

Looking up `COCCOC(=O)Oc1c2n(ncc1=O)[C@@H]([C@H](c1ccccc1)c1cccc(F)c1F)[C@H]1CCCN1C2=O` , I found its pEC50 recorded as > 7.00

pEC50 in this record for `Cc1c(F)cccc1[C@@H](c1ccccc1)[C@H]1[C@H]2CCCN2C(=O)c2c(O)c(=O)cnn21` : > 7.00

---

# EC50 listing for each entry below
test system: influenza A virus minigenome (PB2, PB1, PA, NP; luciferase reporter) in 293T cells, RNP_Hubei; experiment: microbe, parasite or virus in culture; format: cell-based; conditions: HEK-293T, 48 h

Solved entries (count: 6):
- smiles.string: "CN1CCN(C(=O)OCOc2c3n(ncc2=O)[C@@H]([C@H](c2ccccc2)c2cccc(F)c2F)[C@H]2CCCN2C3=O)CC1"
  EC50: "≥ 1000 nM"
- smiles.string: "CCN(C)C(=O)OCOc1c2n(ncc1=O)[C@@H]([C@H](c1ccccc1)c1cccc(F)c1F)[C@H]1CCCN1C2=O"
  EC50: "≥ 1000 nM"
- smiles.string: "O=C1c2c(O)c(=O)cnn2[C@@H]([C@@H](c2ccc(F)c(F)c2)c2cccc(F)c2F)[C@H]2CCCN12"
  EC50: "< 100 nM"
- smiles.string: "Cc1cccc([C@@H](c2cccc(F)c2)[C@H]2[C@H]3CCCN3C(=O)c3c(O)c(=O)cnn32)c1F"
  EC50: "100 to 1000 nM"
- smiles.string: "COC(=O)OCOc1c2n(ncc1=O)[C@@H]([C@H](c1cccc(F)c1)c1cccc(F)c1F)[C@H]1CCCN1C2=O"
  EC50: "< 100 nM"
- smiles.string: "O=C1c2c(O)c(=O)cnn2[C@@H]([C@H](c2ccccc2)c2cccc(F)c2F)[C@@H]2COCCN12"
  EC50: "< 100 nM"

Turning now to a further record.
According to the records, this compound `COC(=O)c1ccccc1C(=O)Oc1c2n(ncc1=O)[C@@H]([C@H](c1ccccc1)c1cccc(F)c1F)[C@H]1CCCN1C2=O` displays EC50 of < 100 nM

---

Reported values of pEC50 for individual entries
system: influenza A virus minigenome (PB2, PB1, PA, NP; luciferase reporter) in 293T cells, RNP_Alaska; assay: microbe, parasite or virus in culture; type: cell-based; settings: HEK-293T, 48 h
pEC50: −log10 of the molar value.

Take a look at these entries with their results.
- compound: "COC(=O)OCOc1c2n(ncc1=O)[C@@H]([C@H](c1ccccc1)c1cccc(F)c1F)[C@H]1CCCN1C2=O [Example 30]"
  pEC50: "> 7.00"
- compound: "CN(C)C(=O)Oc1c2n(ncc1=O)[C@@H]([C@H](c1ccc(F)cc1)c1cccc(F)c1F)[C@H]1CCCN1C2=O [Example 87]"
  pEC50: "≤ 6.00"
- compound: "COc1ccccc1[C@H](c1ccc(F)cc1)[C@H]1[C@H]2CCCN2C(=O)c2c(O)c(=O)cnn21 [Example 6]"
  pEC50: "6.00 to 7.00"

Consider the record given below.
Reported pEC50 for CCN(CC)C(=O)OCOc1c2n(ncc1=O)[C@@H]([C@H](c1ccccc1)c1cccc(F)c1F)[C@H]1CCCN1C2=O [Example 67] was ≤ 6.00

---

Catalogue of pEC50 readings, one per entry.
system: influenza A virus minigenome (PB2, PB1, PA, NP; luciferase reporter) in 293T cells, RNP_Alaska; experiment: microbe, parasite or virus in culture; type: cell-based; conditions: HEK-293T, 48 h
pEC50: −log10 of the molar value.

// below: answered molecules
- molecule: "COc1cccc([C@@H](c2ccc(F)cc2)[C@H]2[C@H]3CCCN3C(=O)c3c(O)c(=O)cnn32)c1 [Example 24]"
  data.value: "6.00 to 7.00"
- molecule: "CC(C)C(=O)OCOc1c2n(ncc1=O)[C@@H]([C@H](c1ccccc1)c1cccc(F)c1F)[C@H]1CCCN1C2=O [Example 32]"
  data.value: "> 7.00"
- molecule: "CC(=O)OCOc1c2n(ncc1=O)[C@@H]([C@H](c1cccc(F)c1)c1cccc(F)c1F)[C@H]1CCCN1C2=O [Example 114]"
  data.value: "> 7.00"
- molecule: "COC(=O)OCOc1c2n(ncc1=O)[C@@H]([C@H](c1cccc(F)c1)c1cccc(F)c1F)[C@H]1CCCN1C2=O [Example 95]"
  data.value: "> 7.00"
- molecule: "O=C1c2c(O)c(=O)cnn2[C@@H]([C@H](c2ccc(F)cc2)c2ccc(OC(F)(F)F)cc2)[C@H]2CCCN12 [Example 23]"
  data.value: "≤ 6.00"

Short answer for CN(C)C(=O)Oc1c2n(ncc1=O)[C@@H]([C@H](c1cccc(F)c1)c1cccc(F)c1F)[C@H]1CCCN1C2=O [Example 96] : pEC50 was ≤ 6.00

According to the records, this molecule COc1ccccc1[C@@H](c1ccc(F)cc1)[C@H]1[C@H]2CCCN2C(=O)c2c(O)c(=O)cnn21 [Example 25] displays pEC50 of 6.00 to 7.00

The reported value for COC(C)(C)C(=O)OCOc1c2n(ncc1=O)[C@@H]([C@H](c1ccccc1)c1cccc(F)c1F)[C@H]1CCCN1C2=O [Example 41] in terms of pEC50 is > 7.00

Query O=C1c2c(O)c(=O)cnn2[C@@H]([C@@H](c2ccc(F)c(F)c2)c2cccc(F)c2F)[C@H]2CCCN12 [Example 27] yields pEC50 of 6.00 to 7.00

---

tested on: influenza A virus minigenome (PB2, PB1, PA, NP; luciferase reporter) in 293T cells, RNP_Hubei; assay: microbe, parasite or virus in culture; type: cell-based; details: HEK-293T, 48 h
pEC50: −log10 of the molar value.
measured.metric: pEC50

Recorded results for 2 compounds are shown here.
- smiles.string: "CC(C)(C)OC(=O)OCOc1c2n(ncc1=O)[C@@H]([C@H](c1ccc(F)cc1)c1cccc(F)c1F)[C@H]1CCCN1C2=O"
  data.value: "> 7.00"
- smiles.string: "CC(C)C(=O)Oc1c2n(ncc1=O)[C@@H]([C@H](c1cccc(F)c1)c1cccc(F)c1F)[C@H]1CCCN1C2=O"
  data.value: "> 7.00"

Then this compound:
// pEC50 value for `COC(=O)OCOc1c2n(ncc1=O)[C@@H]([C@H](c1cccc(F)c1)c1ccc(F)c(F)c1)[C@H]1CCCN1C2=O` : > 7.00

---

EC50 reference
test system: influenza A virus minigenome (PB2, PB1, PA, NP; luciferase reporter) in 293T cells, RNP_Hubei; experiment: microbe, parasite or virus in culture; assay type: cell-based; conditions: HEK-293T, 48 h

- molecule: "CC(=O)Oc1c2n(ncc1=O)[C@@H]([C@H](c1ccc(F)cc1)c1cccc(F)c1F)[C@H]1CCCN1C2=O [Example 83]"
  EC50: "< 0.1 µM"

For O=C(Oc1c2n(ncc1=O)[C@@H]([C@H](c1ccccc1)c1cccc(F)c1F)[C@H]1CCCN1C2=O)N1CCOCC1 [Example 66] the molecule record lists EC50 as ≥ 1 µM

---

system: influenza A virus minigenome (PB2, PB1, PA, NP; luciferase reporter) in 293T cells, RNP_Alaska; assay: microbe, parasite or virus in culture; assay type: cell-based; details: HEK-293T, 48 h
measured.metric: EC50

Some solved cases for reference:
- molecule: "Cc1cccc([C@@H](c2cccc(F)c2)[C@H]2[C@H]3CCCN3C(=O)c3c(O)c(=O)cnn32)c1F [Example 12]"
  EC50: "100 to 1000 nM"
- molecule: "COC(=O)OCOc1c2n(ncc1=O)[C@@H]([C@H](c1ccc(F)cc1)c1cccc(F)c1F)[C@H]1CCCN1C2=O [Example 82]"
  EC50: "< 100 nM"
- molecule: "Cc1c(F)cccc1[C@@H](c1ccccc1)[C@H]1[C@H]2CCCN2C(=O)c2c(O)c(=O)cnn21 [Example 19]"
  EC50: "< 100 nM"

Looking up O=C1c2c(O)c(=O)cnn2[C@@H]([C@H](c2ccccc2)c2cccc(F)c2F)[C@@H]2COCCN12 [Example 14] , I see its EC50 listed as < 100 nM
